# Test system: VRK2
# conditions.used: concentration: 1 μM,replicates: in singlicate; n = 1;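 note: KINOMEscan kinase panel screen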

| compound | %Inh / % |
| --- | --- |
| CCn1c(-c2nonc2N)nc2c(C#CC(C)(C)O)nc(OCCN)cc21.Cl.Cl | 0 |
| CN(C)CC(O)COc1ccc(Nc2nccc(-c3cnn4nc(N5CCOCC5)ccc34)n2)cc1 (stereo not drawn) | 0 |
| CCN(CC)CCOc1ccc(Nc2ncc3cc(-c4c(Cl)cccc4Cl)c(=O)n(C)c3n2)cc1 | 46 |

----------
# Test system: MEK6
# Construct: gene MAP2K6
# conditions.used: concentration: 1 μM,replicates: in singlicate; n = 1
Below is a list of entries, each paired with its recorded %Inh value.

| molecule.smiles | %Inh [%] |
| --- | --- |
| CCN(CC)CCCCNc1ncc2cc(-c3c(Cl)cccc3Cl)c(NC(=O)NC(C)(C)C)nc2n1 | 16 |
| Cl.Cl.NC[C@H](CC1CCCCC1)NC(=O)c1cc(Br)c(-c2ccnc3[nH]ccc23)s1 | 0 |
| COc1ccc(C[C@@H](CN)NC(=O)c2cc(Br)c(-c3ccnc4[nH]ccc34)s2)cc1.Cl.Cl | 100 |
| Cc1cc(C(=O)Nc2ccc(Oc3ccc4nc(NC(=O)C5CC5)cn4n3)cc2)nn1-c1ccccc1 | 0 |

----------
# System: IKK-beta
# Construct: gene IKBKB
# conditions.used: concentration: 1 μM,replicates: in singlicate; n = 1

| molecule | result.units | %Inh |
| --- | --- | --- |
| NC(=O)c1cc(-c2ccccc2)cc2c(C3CCNCC3)c[nH]c12 [GSK301362] | % | 98 |
| C[C@@H](Oc1cc(-c2cnn(C3CCNCC3)c2)cnc1N)c1c(Cl)ccc(F)c1Cl | % | 30 |
| Cc1occc1-c1nc(N)c(OC[C@@H](N)Cc2c[nH]c3ccccc23)cc1-c1cc2c(C)n[nH]c2cn1 [GSK1660450] | % | 9 |
| Cc1cc(C(=O)Nc2ccc(Oc3ccc4nc(NC(=O)C5CC5)cn4n3)cc2)nn1-c1ccccc1 | % | 0 |
| Cl.Oc1cc(-c2nc(-c3ccccc3)[nH]c2-c2ccncc2)ccc1Cl [SB-386023] | % | 8 |
| C[C@@H]1CCN(C(=O)CC#N)C[C@@H]1N(C)c1ncnc2[nH]ccc12 | % | 0 |
| CN(C)CC(O)COc1ccc(Nc2nccc(-c3cnn4nc(N5CCOCC5)ccc34)n2)cc1 (centres unmarked) [GW767488] | % | 93.8 |
| O=C(NCCCN1CCOC1=O)c1cnc(NCc2cc(Cl)ccc2Cl)nc1NC1CCCC1 | % | 16 |

----------
# Test system: RSK1(Kin.Dom.2-C-terminal)
# Construct: gene RPS6KA1
# conditions.used: concentration: 1 μM,replicates: in singlicate; n = 1
Kindly return label 1 if reported %Inh is no lower than 20%; return label 0 if it is lower.

| molecule | category |
| --- | --- |
| C[C@@H]1CCN(C(=O)CC#N)C[C@@H]1N(C)c1ncnc2[nH]ccc12 | label 0 |
| CCN(CC)CCCCNc1ncc2cc(-c3c(Cl)cccc3Cl)c(NC(=O)NC(C)(C)C)nc2n1 | label 0 |
| O=C(NCCCN1CCOC1=O)c1cnc(NCc2cc(Cl)ccc2Cl)nc1NC1CCCC1 | label 0 |
| C=CC(=O)Nc1cc2c(Nc3ccc(F)c(Cl)c3)ncnc2cc1OCCCN1CCOCC1 | label 0 |
| CCn1c(-c2nonc2N)nc2c(C#CC(C)(C)O)nc(OCCN)cc21.Cl.Cl | label 0 |
| Cc1ccc(-n2nc(C(C)(C)C)cc2NC(=O)Nc2ccc(OCCN3CCOCC3)c3ccccc23)cc1 | label 0 |
| Cc1cc2cn[nH]c2cc1-c1cccc2c(N)c(C(N)=O)nnc12 | label 0 |
| CN(C)CC(O)COc1ccc(Nc2nccc(-c3cnn4nc(N5CCOCC5)ccc34)n2)cc1 (centres unmarked) | label 1 |
| Cc1cc(C(=O)Nc2ccc(Oc3ccc4nc(NC(=O)C5CC5)cn4n3)cc2)nn1-c1ccccc1 | label 0 |
| Cl.Cl.NC[C@H](CC1CCCCC1)NC(=O)c1cc(Br)c(-c2ccnc3[nH]ccc23)s1 | label 1 |
| COc1ccc(C[C@@H](CN)NC(=O)c2cc(Br)c(-c3ccnc4[nH]ccc34)s2)cc1.Cl.Cl | label 0 |
| Cl.Oc1cc(-c2nc(-c3ccccc3)[nH]c2-c2ccncc2)ccc1Cl | label 1 |
| Cc1occc1-c1nc(N)c(OC[C@@H](N)Cc2c[nH]c3ccccc23)cc1-c1cc2c(C)n[nH]c2cn1 | label 0 |
| Cl.Cl.Nc1nc(-c2ccc3c(N)n[nH]c3c2)cc(N2CCCC(NC(=O)c3ccccc3)C2)n1 (centres unmarked) | label 0 |

----------
# Tested on: ASK1
# Construct: gene MAP3K5
# conditions.used: concentration: 1 μM,replicates: in singlicate; n = 1

| molecule | result.units | %Inh |
| --- | --- | --- |
| CCN(CC)CCCCNc1ncc2cc(-c3c(Cl)cccc3Cl)c(NC(=O)NC(C)(C)C)nc2n1 | % | 6 |
| Cc1cc2cn[nH]c2cc1-c1cccc2c(N)c(C(N)=O)nnc12 | % | 13 |
| COc1ccc(C[C@@H](CN)NC(=O)c2cc(Br)c(-c3ccnc4[nH]ccc34)s2)cc1.Cl.Cl | % | 0 |
| CN(C)CCOc1ccc(-c2cc(-c3c[nH]nc3-c3ccccn3)ccn2)cc1 | % | 5 |
| CN(C)CC(O)COc1ccc(Nc2nccc(-c3cnn4nc(N5CCOCC5)ccc34)n2)cc1 (centres unmarked) | % | 9 |

----------
# Tested on: CSNK1A1L
# conditions.used: concentration: 1 μM,replicates: in singlicate; n = 1
observed.property: %Inh (%)

| molecule.smiles | measured.result |
| --- | --- |
| Cc1cc(C(=O)Nc2ccc(Oc3ccc4nc(NC(=O)C5CC5)cn4n3)cc2)nn1-c1ccccc1 | 0 |
| COc1ccc(C[C@@H](CN)NC(=O)c2cc(Br)c(-c3ccnc4[nH]ccc34)s2)cc1.Cl.Cl | 81 |
| O=C(NCCCN1CCOC1=O)c1cnc(NCc2cc(Cl)ccc2Cl)nc1NC1CCCC1 | 5 |
| Cc1ccc(-n2nc(C(C)(C)C)cc2NC(=O)Nc2ccc(OCCN3CCOCC3)c3ccccc23)cc1 | 7 |
| CNC(=O)c1ccccc1Sc1ccc2c(/C=C/c3ccccn3)n[nH]c2c1 | 10 |
| C[C@@H](Oc1cc(-c2cnn(C3CCNCC3)c2)cnc1N)c1c(Cl)ccc(F)c1Cl | 0 |
| C[C@H]1Oc2cc(cnc2N)-c2c(nn(C)c2C#N)CN(C)C(=O)c2ccc(F)cc21 | 20 |
| CCN(CC)CCOc1ccc(Nc2ncc3cc(-c4c(Cl)cccc4Cl)c(=O)n(C)c3n2)cc1 | 3 |
| CCN(CC)CCCCNc1ncc2cc(-c3c(Cl)cccc3Cl)c(NC(=O)NC(C)(C)C)nc2n1 | 0 |
| Cl.Oc1cc(-c2nc(-c3ccccc3)[nH]c2-c2ccncc2)ccc1Cl | 25 |
| Nc1nc(Nc2ccccc2)cc(-c2ccc3c(N)n[nH]c3c2)n1 | 10 |
| CC(C)Nc1cc(-c2ccc3c(N)n[nH]c3c2)nc(N)n1 | 5 |
| Cl.Cl.NC[C@H](Cc1ccc(C(F)(F)F)cc1)NC(=O)c1cc(Br)c(-c2ccnc3[nH]ccc23)s1 | 16 |
| C[C@@H]1CCN(C(=O)CC#N)C[C@@H]1N(C)c1ncnc2[nH]ccc12 | 0 |
| CCn1c(-c2nonc2N)nc2c(C#CC(C)(C)O)nc(OCCN)cc21.Cl.Cl | 18 |

----------
# Test system: ULK1
# conditions.used: concentration: 1 μM,replicates: in singlicate; n = 1
%Inh reference

| molecule.smiles | %Inh |
| --- | --- |
| Cc1occc1-c1nc(N)c(OC[C@@H](N)Cc2c[nH]c3ccccc23)cc1-c1cc2c(C)n[nH]c2cn1 | 33% |
| CCN(CC)CCCCNc1ncc2cc(-c3c(Cl)cccc3Cl)c(NC(=O)NC(C)(C)C)nc2n1 | 0% |
| O=C(NCCCN1CCOC1=O)c1cnc(NCc2cc(Cl)ccc2Cl)nc1NC1CCCC1 | 0% |
| C=CC(=O)Nc1cc2c(Nc3ccc(F)c(Cl)c3)ncnc2cc1OCCCN1CCOCC1 | 0% |

----------
# System: LATS1
# conditions.used: concentration: 1 μM,replicates: in singlicate; n = 1

| molecule.smiles | %Inh |
| --- | --- |
| Cc1ccc(-n2nc(C(C)(C)C)cc2NC(=O)Nc2ccc(OCCN3CCOCC3)c3ccccc23)cc1 | 8% |
| CC(C)Nc1cc(-c2ccc3c(N)n[nH]c3c2)nc(N)n1 | 0% |
| C[C@@H]1CCN(C(=O)CC#N)C[C@@H]1N(C)c1ncnc2[nH]ccc12 | 0% |
| C[C@@H](Oc1cc(-c2cnn(C3CCNCC3)c2)cnc1N)c1c(Cl)ccc(F)c1Cl | 17% |
| O=C(NCCCN1CCOC1=O)c1cnc(NCc2cc(Cl)ccc2Cl)nc1NC1CCCC1 | 17% |
| CN(C)CCOc1ccc(-c2cc(-c3c[nH]nc3-c3ccccn3)ccn2)cc1 | 31% |
| Cl.Cl.NC[C@H](Cc1ccc(C(F)(F)F)cc1)NC(=O)c1cc(Br)c(-c2ccnc3[nH]ccc23)s1 | 57% |
| COc1ccc(C[C@@H](CN)NC(=O)c2cc(Br)c(-c3ccnc4[nH]ccc34)s2)cc1.Cl.Cl | 62% |
